# system: T1, human IgE (Diatec, Oslo, Norway) (human, UniProt P01854-1 1-428)
# T1 construct: Bought whole IgE; biotinylated in the Alphascreen assays, amine-coupled in SPR; also called HuIgE; HulgE
# T1 sequence (P01854 other isoform, or with tags, fused parts or gaps): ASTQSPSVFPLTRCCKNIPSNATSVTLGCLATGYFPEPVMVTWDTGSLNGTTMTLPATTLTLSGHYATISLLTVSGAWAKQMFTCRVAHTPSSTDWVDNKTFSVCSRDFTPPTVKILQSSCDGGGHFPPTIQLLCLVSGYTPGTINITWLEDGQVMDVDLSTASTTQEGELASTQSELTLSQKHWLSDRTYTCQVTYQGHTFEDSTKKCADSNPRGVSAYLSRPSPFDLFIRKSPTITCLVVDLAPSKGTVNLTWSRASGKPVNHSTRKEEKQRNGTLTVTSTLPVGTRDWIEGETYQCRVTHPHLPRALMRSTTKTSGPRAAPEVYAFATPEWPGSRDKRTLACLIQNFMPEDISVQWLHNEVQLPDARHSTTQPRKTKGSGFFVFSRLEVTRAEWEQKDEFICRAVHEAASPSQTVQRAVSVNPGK
# measurement_notes: ELISA, competition with coated Fc(epsilon)RI for HuIgE
endpoint: IC50

Prompt: Endpoint output: IC50 of Nanobody 39D11 (VHH, not shown: C-terminal c-myc tag and His6 tag) VHH: EVQLVESGGGLVQPGGSLRLSCAASGFTFGSYDMSWVRQAPGKGPEWVSSIDTGGDITHYADSVKGRFTISRDNANNMLYLQMNSLKPEDTAVYWCATDEDYALGPNEYDYYGQGTQVTVSS . Value?
Completion: 0.511 nM

Prompt: For the binder Nanobody 42G5 (VHH, not shown: C-terminal c-myc tag and His6 tag) VHH: EVQLVESGGGLVRPGGSLRLSCAASGFTFGNYDMSWVRQAPGKGPEWVSSIDTGGDITHYADPVKGRFTISRDNAANTLYLQMNSLKPEDTAVYYCATDEDYALGPNEYDYYGQGTQVTVSS , what IC50 is on record?
Completion: 8.38 nM

Prompt: Report IC50 for Nanobody 42D7 (VHH, not shown: C-terminal c-myc tag and His6 tag) VHH: EVQLVESGGGLVQPGGPLRLSCAASGFTFGSYDMSWVRQAPGKGPEWVSSIDTGGDITHYADSVKGRFTISRDNANNMLYLQMNSLKPEDTAVYWCATDEDYALGPNEYDYYGQGTQVTVSS please.
Completion: 0.959 nM

Prompt: Returns the measured IC50 for the input binder. Input: Nanobody 36G5 (VHH, not shown: C-terminal c-myc tag and His6 tag) VHH: EVQLVESGGGLVQPGGSLRLSCVASGFTFGSYDMSWVRQAPGKRPEWVSAINSGGGSTYYADSVKGRFTISRDNAKNTLYLQMNSLKPEDTAVYYCATDEDYALGPNEYDYYGQGTQVTVSS
Completion: 2.96 nM

Prompt: I would be grateful if you could share the reported IC50 for Nanobody 39D8 (VHH, also called 39D08; not shown: C-terminal c-myc tag and His6 tag) VHH: EVQLVESGGGLVQPGGSLRLSCAASGFTFGSYDMSWVRQAPGKGPEWVSSIDTGGDITHYADSVKGRFTISRDNANNMLYLQMNSLKPGDTAVYWCATDEDYALGPNEYDYYGQGTQVTVSS .
Completion: 0.55 nM

Prompt: // IC50 lookup, key: Nanobody 39B2 (VHH, also called 39B02; not shown: C-terminal c-myc tag and His6 tag) VHH: EVQLVESGGGLVQPGGSLRLSCAASGFTFGSYDMSWVRQAPGKGPEWVSAINSGGGSTYYADSVKGRFTISRDNAKNTLYLQMNSLKPEDTAVYYCSTDLGPWIEGTMEEYEYEYWGQGTQVTVSS
Completion: 39.4 nM
